Target: T1, Recombinant human insulin receptor (B form) ECD (R&D Systems) (human, UniProt P06213 28-956, limits assumed)
T1 construct: extracellular domain; also called INSR-ECD; h-INSR
Assay: SPR (Biacore 2000), INSR-ECD immobilised, purified Fab injected, 1:1 fit
parameterMeasured: Kd (nM)

binder | numericValue
RHF.15.05896.006 (Fab, V domains shown, Untagged Fab) VH: EVQLVETGGGVVQPGRSLRLSCAASGFKFSSYAMHWVRQAPGKGLEWVAVISYSGDNKYYADSVKGRFTISRDNSKNTLYLQMNSLRAEDTAVYYCARHEWGFGFDRWGQGTTVTVSS VL: DVVMTQSPLSLPVTLGQPASISCRSSQSLVYGDGNTYLNWFQQRPGQSPRRLIYKVSNRDSGVPDRFSGSGSGTEFTLKISRVEAEDVGVYFCMQGTYWPGTFGGGTKLEIKR | 1.9
